The values you see were collected from patent US20200017467A1.

As shown below, each of these compounds has a reported LogP value.
assay: Log P by HPLC on reversed phase columns (EEC directive 79/831 Annex V.A8); format: physicochemical; conditions: method [a]: LC-UV, acidic range, 0.1% formic acid in water and acetonitrile; compounds of formula (V)

compound	LogP
CC(=O)c1ccc(Oc2ccc(Cl)nc2)nc1C(F)(F)F [V-05]	3.00^[a]
CC(=O)c1cnc(Oc2ccc(Cl)nc2)cc1Cl [V-10]	2.59^[a]
CC(=O)c1cnc(Oc2ccc(Br)nc2)cc1C(F)(F)F [V-07]	3.17^[a]
CC(=O)c1cnc(Oc2ccc(C(F)(F)F)nc2)cc1C(F)(F)F [V-04]	3.44^[a]
CC(=O)c1ccc(Oc2ccc(F)nc2)nc1Cl [V-08]	2.39^[a]
CC(=O)c1ccc(Oc2ccc(Cl)nc2)nc1Cl [V-03]	2.66^[a]
CC(=O)c1ccc(Oc2ccc(C)nc2)nc1Cl [V-09]	1.42^[a]

---

As shown below, each of these molecules has a reported pest or weed control at 500 ppm value.
test system: Septoria tritici; assay: Example F-B: in vivo curative Septoria tritici test (wheat); settings: Zymoseptoria tritici, 504 h, sprayed 48 hours after inoculation, evaluated 21 days after inoculation, read-out: Efficacy in % Example F-B

molecule	pest or weed control at 500 ppm
CC(O)(Cn1cncn1)c1cnc(Oc2ccc(Cl)nc2)cc1C(F)(F)F (stereo not drawn)	100%
CC(O)(Cn1cncn1)c1cnc(Oc2ccc(C(F)(F)F)nc2)cc1C(F)(F)F (stereo not drawn)	100%
OC(Cn1cncn1)c1cnc(Oc2ccc(Br)nc2)cc1C(F)(F)F (stereo not drawn)	60%
CC(O)(Cn1cncn1)c1cnc(Oc2ccc(Br)nc2)cc1C(F)(F)F (stereo not drawn)	70%
OC(Cn1cncn1)c1ccc(Oc2ccc(C(F)(F)F)nc2)nc1C(F)(F)F (stereo not drawn)	86%
CC(O)(Cn1cncn1)c1ccc(Oc2ccc(Br)nc2)nc1C(F)(F)F (stereo not drawn)	93%
Clc1ccc(Oc2cc(Cl)c(C3(Cn4cncn4)OCCO3)cn2)cc1 [reference compound]	89%
CC(O)(Cn1cncn1)c1ccc(Oc2ccc(C(F)(F)F)nc2)nc1C(F)(F)F (stereo not drawn)	100%
CC(O)(Cn1cncn1)c1ccc(Oc2ccc(Cl)nc2)nc1C(F)(F)F (stereo not drawn)	100%

---

Experiment: Log P by HPLC on reversed phase columns (EEC directive 79/831 Annex V.A8)
Type: physicochemical
Conditions: reversed phase HPLC columns; method [a]: LC-UV, acidic range, 0.1% formic acid in water and acetonitrile; compounds of formula (I)
Protocol: Log P values: Measurement of Log P values was performed according to EEC directive 79/831 Annex V.A8 by HPLC (High Performance Liquid Chromatography) on reversed phase columns with the following methods: • ^[a] […] Lambda-max-values were determined using UV-spectra from 200 nm to 400 nm and the peak values of the chromatographic signals.

compound	chromatographic logP
CC(O)(Cn1cncn1)c1ccc(Oc2ccc(Br)nc2)nc1C(F)(F)F (stereo not shown)	2.25
OC(Cn1cncn1)c1cnc(Oc2ccc(Br)nc2)cc1C(F)(F)F (stereo not shown)	2.13
OC(Cn1cncn1)c1ccc(Oc2ccc(Br)nc2)nc1C(F)(F)F (stereo not shown)	2.03
OC(Cn1cncn1)c1cnc(Oc2ccc(Cl)nc2)cc1C(F)(F)F (stereo not shown)	1.99
CC(O)(Cn1cncn1)c1cnc(Oc2ccc(Cl)nc2)cc1C(F)(F)F (stereo not shown)	2.18
CC(O)(Cn1cncn1)c1ccc(Oc2ccc(Cl)nc2)nc1C(F)(F)F (stereo not shown)	2.21
OC(Cn1cncn1)c1ccc(Oc2ccc(C(F)(F)F)nc2)nc1C(F)(F)F (stereo not shown)	2.2
CC(O)(Cn1cncn1)c1cnc(Oc2ccc(Br)nc2)cc1C(F)(F)F (stereo not shown)	2.3
CC(O)(Cn1cncn1)c1ccc(Oc2ccc(C(F)(F)F)nc2)nc1C(F)(F)F (stereo not shown)	2.56
CC(O)(Cn1cncn1)c1cnc(Oc2ccc(C(F)(F)F)nc2)cc1C(F)(F)F (stereo not shown)	2.53
